System: soybean
Assay: Phytotoxicity test for field crops (soil treatment test)
Type: in vivo
Set-up: key: 0 (no harm); 9 (complete withered)
Test Parameters: 100 g ai/ha; Soybean (20 days after treatment)
Measured Property: Soil treatment phytotoxicity, Soybean

The cases that follow already have their Soil treatment phytotoxicity, Soybean on record.
Cn1nnc(COCc2nc(C(F)(F)C(F)(F)F)ccc2C(=O)Nc2nnnn2C)n1 = 0
Cn1nnc(CSCc2nc(C(F)F)ccc2C(=O)Nc2nnnn2C)n1 = 3
Cn1nnnc1COc1nc(C(F)(F)F)ccc1C(=O)Nc1nnnn1C = 7
Cn1nnnc1COCc1nc(C(F)(F)F)ccc1C(=O)Nc1nnnn1C = 6
Cn1nnc(COCc2nc(C(F)(F)F)ccc2C(=S)Nc2nnnn2C)n1 = 0

Q. For soybean, provide Soil treatment phytotoxicity, Soybean of CCOC(=O)OC(C)n1nnn(C)c1=NC(=O)c1ccc(C(F)(F)F)nc1CSCc1nnn(C)n1 (centres unmarked) please.
A. 3

Q. Hello, I am looking for reported Soil treatment phytotoxicity, Soybean with soybean for `Cn1nnnc1NC(=O)c1ccc(C(F)(F)F)nc1Sc1nnnn1C` . Could you help?
A. 0

Q. What reported Soil treatment phytotoxicity, Soybean corresponds to `CN(Cc1nnn(C)n1)c1nc(C(F)(F)F)ccc1C(=O)Nc1nnnn1C` on soybean?
A. 7

Q. Form field - read-out: Soil treatment phytotoxicity, Soybean; system: soybean; submitted item: `CON(Cc1nnn(C)n1)Cc1nc(C(F)(F)F)ccc1C(=O)Nc1nnnn1C`
A. 0

Q. Lookup: Soil treatment phytotoxicity, Soybean / soybean / `Cn1nnc(COCc2nc(C(F)(F)Cl)ccc2C(=O)Nc2nnnn2C)n1`
A. 0
